Test system: Mycobacterium tuberculosis
Assay: Antitubercular activity against streptomycin, isoniazid, rifampicin,ethambutol-resistant Mycobacterium tuberculosis clinical isolate assessed as reduction in RLU at 100 ug/mL after 72 hrs by luciferase reporter phage assay
Format: functional
Parameters: scale not given: the % may be the effect or the level left
ENDPOINT: Activity (%)
Give the quantity in %, number only.

Worked examples follow.
COMPOUND | MEASUREMENT_UNIT | Activity
N#Cc1c(-c2ccc(Br)cc2)[nH]c(=S)[nH]c1=O | % | 38.03
N#Cc1c(-c2ccc(F)cc2)[nH]c(=O)[nH]c1=O | % | 38.38
N#Cc1c(-c2ccc(Cl)cc2)[nH]c(=S)[nH]c1=O | % | 61.35
N#Cc1c(-c2cccc(Cl)c2)[nH]c(=O)[nH]c1=O | % | 50.1

Write Activity of `COc1ccc(-c2[nH]c(=O)[nH]c(=O)c2C#N)cc1O` ; system used: Mycobacterium tuberculosis
25.47
